target: Beta-secretase 1 (Homo sapiens, UniProt P56817)
Sequence (P56817 whole entry): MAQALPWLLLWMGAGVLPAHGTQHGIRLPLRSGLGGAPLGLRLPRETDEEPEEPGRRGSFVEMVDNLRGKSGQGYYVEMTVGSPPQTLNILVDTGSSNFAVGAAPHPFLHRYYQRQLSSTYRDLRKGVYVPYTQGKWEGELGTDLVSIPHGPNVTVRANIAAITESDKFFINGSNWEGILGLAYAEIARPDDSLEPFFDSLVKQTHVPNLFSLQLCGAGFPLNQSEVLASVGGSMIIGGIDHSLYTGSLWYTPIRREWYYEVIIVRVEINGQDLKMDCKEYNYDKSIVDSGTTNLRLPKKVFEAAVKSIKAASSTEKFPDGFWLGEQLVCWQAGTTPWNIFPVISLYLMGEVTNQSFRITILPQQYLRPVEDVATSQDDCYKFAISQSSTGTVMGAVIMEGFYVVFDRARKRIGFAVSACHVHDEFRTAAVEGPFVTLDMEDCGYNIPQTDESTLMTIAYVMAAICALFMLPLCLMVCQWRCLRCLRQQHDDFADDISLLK
REPORTED_METRIC: Ki (µM)

• CSCCC(NC(=O)[C@@H](NC(=O)OC(C)(C)C)C(C)C)C(=O)N[C@@H](CC(C)C)C(O)CC(C)C(=O)NC(C(=O)NCc1ccccc1)C(C)C (stereo partly specified) = 0.0025

(A) CC(C)C[C@H](NC(=O)[C@H](CC(N)=O)NC(=O)OC(C)(C)C)C(O)CC(C)C(=O)NC(C)C(=O)NCc1ccccc1 (stereo partly specified)
(B) CSCC(NC(=O)[C@@H](NC(=O)OC(C)(C)C)C(C)C)C(=O)N[C@@H](CC(C)C)C(O)CC(C)C(=O)NC(C(=O)NCc1ccccc1)C(C)C (stereo partly specified)
(C) CSCCC(NC(=O)OC(C)(C)C)C(=O)N[C@@H](CC(C)C)C(O)CC(C)C(=O)NC(C(=O)NCc1ccccc1)C(C)C (stereo partly specified)
(D) CC(C)C[C@H](NC(=O)C(CS(C)(=O)=O)NC(=O)[C@@H](NC(=O)OC(C)(C)C)C(C)C)C(O)CC(C)C(=O)NC(C(=O)NCc1ccccc1)C(C)C (stereo partly specified)
(E) CC(C)C[C@H](NC(=O)[C@H](CC(N)=O)NC(=O)OC(C)(C)C)C(O)CC(C)C(=O)NC(C(=O)NCc1ccccc1)C(C)C (stereo partly specified)
In: Order the records, beginning with the lowest Ki and ending with the highest. Labels, requested order.
Out: D, B, E, C, A
